Field: normalized growth. Provide a value for each of the compounds that follow.
Test: chemical genetic growth profiling, strain panel (AID 1159580);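 note: tested at 20 µM; growth read once vehicle control cultures reached saturation at 30 °C; 1 = growth at the plate median or of vehicle wells; lower values mean less growth of the strain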
Conditions: S. cerevisiae deletion strains, growth OD, locus YFR010W, strain ubp6, hits give low values
Screen size: about 5,500 compounds; about 2,000 (36%) were called active. Another 18% or so got no clear call; they are omitted. This is one part of the list.

Take a look at these entries with their results.
O=c1c(O)cc([C@H]2Oc3cc(O)cc(O)c3C[C@H]2O)cc2c([C@H]3Oc4cc(O)cc(O)c4C[C@H]3O)cc(O)c(O)c12
1.03 (inactive)
NC[C@@H]1O[C@H](O[C@@H]2[C@@H](CO)OC(O[C@@H]3[C@@H](O)[C@H](N)C[C@H](N)[C@H]3O[C@H]3O[C@H](CO)[C@@H](O)[C@H](O)[C@H]3N)[C@@H]2O)[C@H](N)[C@@H](O)[C@@H]1O (stereo partly drawn)
0.996 (inactive)

Next compound, normalized growth to be filled in.
-- ask What value of measured normalized growth is listed for CCC(=O)NCC[C@@H]1CCc2ccc3c(c21)CCO3 ?
-- reply 0.953 (inactive)
